test: yeast display, Sf9 membrane polyspecificity reagent, FACS + sequencing; frameworks hold sequencing errors
readout label: polyreactivity (PSR sort gate)

Query :: GET /values?readout=polyreactivity (PSR sort gate)&item= `QVQLVESAGGLVQAGGSLRLSCAASGRTFHWYTMGWYRQAPGKEREFVAGINWSGARTYYADSVKGRFTISRDNAKNTVYLQMNSLKPEDTAVYYCAKRLWGIDFDYWGQGTQVTVSS`
Result :: high polyreactivity

Query :: Also need `QVQLVESGGGLVQAGGSLRLSCAASGRTLSRYTMGWYRQAPGKERELVAAISTSGSTYYADSVKGRFTISRDNAKNTVYLQMNSLKPEDTAVYYCYAVRRYLQYATGYDYWGQGTQVTVSS` , thanks.
Result :: high polyreactivity

Query :: Also need `QVQLVESGGGLVQAGGSLRLICAASGIIFTRYAMGWYRQAPGKERELVAAISTRGGSTYYADSVKGRFTISRDNAMNTVYLQMNSLKPEDTAVYYCAATNAKDGEMDYWGQGTQVTVSS` , thanks.
Result :: high polyreactivity

Query :: Also need `QVQLVESGGGLVQAGGSLRLSCAASGRTFSSYAMGWYRQAPGKERELVAAINWSGASTYYADSVKGRFTISRDNAKNTVYLQMNSLKPEDTAVYYCAKSLYVGKYWQIRSSVDYWGQGTQVTVSS` , thanks.
Result :: low polyreactivity

Query :: Also need `QDQHVESGGGLVQAGGSLRLSCAASGIILSAYAMGWYRQAPGTERELVARISRSGGRTYYADSVKGRFTISRDNAKNTVYLQMNSLKPEDTAVYYCAADYSYGFGLYFGYGYWGQGTQVTVSS` , thanks.
Result :: high polyreactivity

Query :: Also need `QVQLVESGGGLVQAGGSLRLSSAASGFTVKYNTMGSSRQAPGKEREMVAAISWDGTSTYYADSVKGRFTISRDYAKNTVYLQMNSLKPEDTAVYYCATDAVGAWWSYLSGYGYWGQGTQVTVSS` , thanks.
Result :: high polyreactivity

Continuing:
Query :: GET /values?readout=polyreactivity (PSR sort gate)&item= `QVQLVESGGGLVQAGGSLRLSCAASGSIFVLNAMGWYRQAPGKERELGAAITNVGSTYYADSVKGRFTISRDNAKNTVYLQMNSLKPEDTAVYYCNAVLAPGGYDYWGQGTQVTVSS`
Result :: low polyreactivity

Query :: Also need `QVQLEESGGGLVQAGGSLRLSCAASGNTLGPYAMGWYRQATGKERELVAAITWSGGITDYADYVKGRFTISRDNAKNTVYLQMNSLKPEDTAVYYCNSGPSLGIFQGTSVGLRYDYWGQGTQVTLSS` , thanks.
Result :: low polyreactivity

Query :: Also need `QVQRVESGGGLVQARGSLRLSCAPSGSIFPYYAMGCYRPAPGKERELVAGISRRGGTTYYADSVKGRLTISRDNAKNTVYIQMHSLKPEDTAVYYCAARYGPYVDRYGYCGQGTQVTVSS` , thanks.
Result :: high polyreactivity

Query :: Also need `QVQLVESGGGLVQAGGSLRLSCAASGRIFYSYAMGWYRQAPGKERELVAAISFSVGSTYYADSVKGRFTISRDNAKNTVYLQMNSLKPEDTAVYYCATGWYYTSTTYRSSDFDYWGQGTQVTVSS` , thanks.
Result :: low polyreactivity

Query :: Also need `QVQLVESGGGLVQAGGSLRLSCAASGRIFDINAMGWYRQAPGKESELVAAISRGGSTYYADSVKGRFTISRDNAKHTVDLQMNSLKPQDTAVYYCNKYRYRGSTVFDGYDYWGQGTQVTVSS` , thanks.
Result :: high polyreactivity
